Test system: MMP-13
Test name: MMP-13 Production Inhibition Test
Assay type: cell-based, human
Assay context: Homo sapiens; 30 μmol/L; SW1353 cells stimulated with IL-1β 10 ng/mL; MMP-13 in culture supernatant by ELISA 16 hours after stimulation; read-out: Inhibition rate (%) at 30 μmol/L
Classify by measured inhibition at 30 µM: criterion met if it is equal to or exceeds 90%, criterion not met if it is smaller.

Use the examples below as a reference point.
{"columns": ["Smiles repr", "Label"],
 "data": [
  ["O=C(Nc1cc(Oc2ccccc2)ccc1C(=O)O)c1ccc(F)cc1", "criterion met"],
  ["O=C(Nc1cc(-c2ccc(O)cc2)ccc1C(=O)O)c1ccccc1", "criterion met"],
  ["O=C(Nc1cc(CCc2ccccc2)ccc1C(=O)O)c1ccccc1", "criterion not met"],
  ["O=C(Nc1cc(/C=C/c2cccc(Cl)c2)ccc1C(=O)O)c1ccccc1", "criterion met"]
]}

Now turn to the next compound.
Quick check: does O=C(Nc1cc(-c2ccccc2)ccc1C(=O)O)c1cccs1 have inhibition at 30 µM greater than or equal to 90%? criterion not met
